The measured values listed here are drawn from the supplement of paper PMC9732359.

Procedure Summary: protein stability index of a GFP-peptide fusion (yeast GPS) (PSI 1-4); higher = more stable; sorted into four equal gates, so the index is relative within each strain
Assay Context: pdr5∆
We use 2 as the dividing line for protein stability index: on or above the line is rule met, below is rule not met.

Construct Sequence | Label Value
IDKFIMVVQKYKLSTVV [GRR1] | rule not met
GEGSTVNASVDVDQHGN [SWI3] | rule met
LDDPVLNAIVSKNSPAE [YJR042W/NUP85] | rule not met
KRFKRKDNAKISNNLAL [SRP68] | rule met
YDGDTVTFSPTGRLFQV [PRE5] | rule met
WTEASSSGAGTVKLYLP [ECM29] | rule not met
AAGSYYVEAQHKLVFVV [RPL7A] | rule met
LRASFNKLSSILQNEHD [SRB4] | rule met
GLFGANSNSNSGSLFGS [YGL172W/NUP49] | rule not met
ELDSKTRKILEILNECH [MED4] | rule met
IFAGAFVFQTVFDTAIT [QCR9] | rule not met
TGWISKCTAEGIKVSLL [RPC25] | rule met
NPMKKHKPNEGRTPNIS [SIR4] | rule met
TNLGQPHSLATKTTGKC [RPS2] | rule met
FDENIARDIISHNFQNA [PCI8] | rule met
LWSGKQILSVAIPNGIH [RPO21] | rule not met
SLYIYYLIKLLGFEVKD [SIR2] | rule met
STSENKISEGSAKPTFS [YOR098C/NUP1] | rule met
SVGLPSKVASSLVIIIL [ECM29] | rule not met
PVKLDENSANSTVASAL [SIR4] | rule met
LLVFRNADLDLDEMELH [YDL116W/NUP84] | rule met
AIPNSIIKRSNGQSLSP [YMR153W/NUP53] | rule met
LNHRNKNQHRAASWYGS [RMP1] | rule met
ETFQDTFSGALGKQSSS [FAS2] | rule met
RDEIAKNTELSYDFLPL [RPN12] | rule met
IRIYFTEKDDNKTNNED [NUT1] | rule met
